phosphorylation enrichment values, listed per item
# Tested on: Fer (mouse)
# Protocol Text: phosphorylation enrichment, bacterial display (enrichment ratio); higher = better substrate or ligand; peptides without Tyr show the background
# answer = number (no unit)

ALVFLSFCIIF [SIGLEC12_Y494_Y494S] ... 0.39
EFKKHYGYSLY [ANXA3_Y295] ... 0.353
FFFDLYGGEKF [PTPN11_Y66_D61Y_YF] ... 0.418
SGGSSYGSGGC [KRT1_Y532_G537C] ... 0.53
GGFTWYCDGKK [PROS1_Y266_C265W_YF] ... 0.438

Can you look up the measured phosphorylation enrichment of QDRTFYERVRT [SPEN_Y633_S635R_YF] for me?
3.63

Also, QEGPEYWDEET [HLA-A_Y83_Q86E] please.
0.951

###

# Assayed Target: Hck (UniProt P08631)
# Sequence (P08631 whole entry, looked up): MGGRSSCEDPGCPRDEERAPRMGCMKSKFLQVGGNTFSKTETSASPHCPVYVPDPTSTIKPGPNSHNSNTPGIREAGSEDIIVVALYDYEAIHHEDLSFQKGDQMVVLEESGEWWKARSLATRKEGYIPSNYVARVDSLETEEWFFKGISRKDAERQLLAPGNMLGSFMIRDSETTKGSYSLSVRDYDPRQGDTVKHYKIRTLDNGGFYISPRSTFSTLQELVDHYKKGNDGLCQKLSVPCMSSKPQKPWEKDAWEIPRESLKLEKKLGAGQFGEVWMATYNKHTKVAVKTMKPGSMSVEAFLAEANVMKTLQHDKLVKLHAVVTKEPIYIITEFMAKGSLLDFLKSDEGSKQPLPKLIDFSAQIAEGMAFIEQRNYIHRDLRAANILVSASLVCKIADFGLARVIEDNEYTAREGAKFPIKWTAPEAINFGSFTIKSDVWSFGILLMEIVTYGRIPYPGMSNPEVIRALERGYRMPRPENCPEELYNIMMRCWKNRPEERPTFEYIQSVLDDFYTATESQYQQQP
# Protocol Text: phosphorylation enrichment, bacterial display (enrichment ratio); higher = better substrate or ligand; peptides without Tyr show the background
phosphorylation enrichment values, listed per item
# answer = number (no unit)

Here's what some known entries look like.
MILSAYALGGL [CPS1_Y590_R587L] ... 0.497
MFVKSYTIHFS [F5_Y2153_YF] ... 0.495

Attention now shifts to the item below.
Can you look up the measured phosphorylation enrichment of CTTIHYNYMFN [TP53_Y234_C238F] for me?
0.498

###

phosphorylation enrichment values, listed per item
# Assayed Target: Fyn (UniProt P06241)
# Sequence (P06241 whole entry, looked up): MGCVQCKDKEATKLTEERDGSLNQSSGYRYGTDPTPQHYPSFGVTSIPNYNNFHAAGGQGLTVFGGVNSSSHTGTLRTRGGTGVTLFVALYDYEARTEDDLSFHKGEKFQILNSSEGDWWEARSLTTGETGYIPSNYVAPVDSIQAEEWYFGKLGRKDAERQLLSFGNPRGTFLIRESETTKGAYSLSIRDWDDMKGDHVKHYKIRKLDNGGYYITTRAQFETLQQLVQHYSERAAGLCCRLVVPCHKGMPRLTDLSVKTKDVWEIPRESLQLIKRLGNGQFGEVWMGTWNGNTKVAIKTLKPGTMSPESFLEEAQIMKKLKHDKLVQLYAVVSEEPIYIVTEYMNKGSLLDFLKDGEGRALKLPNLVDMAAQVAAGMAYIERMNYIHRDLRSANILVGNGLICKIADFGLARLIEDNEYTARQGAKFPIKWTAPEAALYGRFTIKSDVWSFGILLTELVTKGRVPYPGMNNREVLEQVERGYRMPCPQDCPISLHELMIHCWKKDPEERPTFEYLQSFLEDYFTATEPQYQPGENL
# Protocol Text: phosphorylation enrichment, bacterial display (enrichment ratio); higher = better substrate or ligand; peptides without Tyr show the background
# answer = number (no unit)

Can you look up the measured phosphorylation enrichment of MIAIRYSHSRR [ACOXL_Y260_T255M] for me?
0.444

###

# Assayed Target: FGFR3 (UniProt P22607)
# Sequence (P22607 whole entry, looked up): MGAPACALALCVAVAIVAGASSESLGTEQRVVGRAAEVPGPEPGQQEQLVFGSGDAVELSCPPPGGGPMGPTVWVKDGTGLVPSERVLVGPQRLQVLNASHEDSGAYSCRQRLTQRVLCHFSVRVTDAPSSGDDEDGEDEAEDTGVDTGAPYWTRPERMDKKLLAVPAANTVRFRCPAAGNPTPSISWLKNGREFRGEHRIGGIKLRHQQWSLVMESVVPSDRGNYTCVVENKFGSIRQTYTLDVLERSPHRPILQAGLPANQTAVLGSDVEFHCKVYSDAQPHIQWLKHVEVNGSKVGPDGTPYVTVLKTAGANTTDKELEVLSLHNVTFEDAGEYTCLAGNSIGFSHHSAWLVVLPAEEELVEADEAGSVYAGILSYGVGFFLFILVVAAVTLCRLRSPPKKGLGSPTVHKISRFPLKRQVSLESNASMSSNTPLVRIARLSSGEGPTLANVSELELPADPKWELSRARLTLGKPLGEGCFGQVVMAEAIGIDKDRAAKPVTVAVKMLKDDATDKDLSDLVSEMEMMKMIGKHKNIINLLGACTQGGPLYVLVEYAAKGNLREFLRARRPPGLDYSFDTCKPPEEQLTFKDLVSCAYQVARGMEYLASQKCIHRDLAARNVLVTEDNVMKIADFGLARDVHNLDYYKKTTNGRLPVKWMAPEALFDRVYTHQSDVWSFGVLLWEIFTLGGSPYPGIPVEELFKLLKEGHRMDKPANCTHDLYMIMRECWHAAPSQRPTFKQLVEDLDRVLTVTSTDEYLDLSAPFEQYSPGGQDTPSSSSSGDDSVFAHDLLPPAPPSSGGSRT
# Protocol Text: phosphorylation enrichment, bacterial display (enrichment ratio); higher = better substrate or ligand; peptides without Tyr show the background
phosphorylation enrichment vs 0.7: at or above is Criterion met, below is Criterion not met.

As a guide, the following entries are already answered.
DPLLTYRFPPN [LMNA_Y481_K486N] ... Criterion met
ILIFHYAKGQP [MPZ_Y82_S78L] ... Criterion met
ICGVSYDEYRY [CFTR_Y512_F508C] ... Criterion met

Test whether the sequence CPPELYALMSD [ZAP70_Y569] records phosphorylation enrichment of 0.7 or higher.
Criterion met

Also, KSVEEYANCHL [TF_Y593_P589S] please.
Criterion not met

Also, SLTRLYVGENA [NLRP3_Y861] please.
Criterion not met

Also, GSIQQYTFKQE [PRG4_Y1271_I1272T_YF] please.
Criterion not met

Also, KVKPIYLHTQG [AR_Y916_F917L] please.
Criterion not met

Also, SQQTFYPVSNM [ABCD1_Y181_R182P_YF] please.
Criterion not met

Also, GVTLLYFGRDN [ADGRD1_Y85_Y89D_YF] please.
Criterion met

Also, RVDRDYVLKSA [HTATIP2_Y111] please.
Criterion not met

###

# Assayed Target: c-Src SH2;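 further: peptide library displayed on the E. coli surface as eCPX fusions, selected cells deep-sequenced, score is each peptide's frequency after selection divided by its frequency in the input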
# Protocol Text: SH2 binding enrichment of the phosphorylated peptide, bacterial display (enrichment ratio); higher = better substrate or ligand; peptides without Tyr show the background
SH2 binding enrichment vs 0.6: at or above is 1, below is 0.

As a guide, the following entries are already answered.
PTDSVYVMPTV [MYO7A_Y1668] ... 0
YPPDGYSRHYE [CTNND1_Y213] ... 1
IALNSYHSRNC [IFNGR1_Y397] ... 0
KKKKQYKGKFL [CASK_Y708_D710G_YF] ... 0
LVMFIYAISGM [SCN1A_Y1684_F1687S] ... 0
MSRDVYSTDFF [NTRK2_Y702_YF] ... 0
NRVEIYEKTVE [CYFIP1_Y108] ... 1
IQKWEYVPLGT [FAH_Y244_P249T] ... 1
VDTFWYKLLKR [EPM2A_Y86_F88L] ... 1
ETLLYYGCRRS [POR_Y564] ... 0

Test whether the sequence GFILMYDITNK [RAB3C_Y110_E115K] records SH2 binding enrichment of 0.6 or higher.
0

Measured values drawn from the supplement of paper PMC10065799 for this set.
